Measured pKd of individual entries
- SYSTEM TESTED: T1, HTRA3, P83110
- T1 sequence (P83110 354-453, limits assumed, looked up): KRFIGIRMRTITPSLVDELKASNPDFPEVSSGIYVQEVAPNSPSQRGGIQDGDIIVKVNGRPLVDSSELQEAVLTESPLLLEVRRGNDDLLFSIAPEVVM
- ASSAY OVERVIEW: holdup assay
- Set-up: key: below the threshold = too weak to quantify, mostly under pKd 3.1 to 4
- CONDITION DESCRIPTION: plain residues with an end cap or a label only (N-terminal biotin on a linker: ado-ado)
Number only, no unit.

SFISKKEWYV [NECTIN1, Q15223]
4.83

The record that follows has no pKd shown yet.
Sample GTGYDRKDYV [CLDN3, O15551] ; pKd observed: 4.17

Where do the numbers come from? From paper PMC9482650.
